The following binders are listed with their measured EC50 values.
Molecular target: T1, human TNFR2 on the cell membrane (human, UniProt P20333 23-461)
T1 construct: whole, on cells; One molecule for all cell formats; also called TNFR2-CHO cells; CHO-TNFR2
T1 sequence (looked up): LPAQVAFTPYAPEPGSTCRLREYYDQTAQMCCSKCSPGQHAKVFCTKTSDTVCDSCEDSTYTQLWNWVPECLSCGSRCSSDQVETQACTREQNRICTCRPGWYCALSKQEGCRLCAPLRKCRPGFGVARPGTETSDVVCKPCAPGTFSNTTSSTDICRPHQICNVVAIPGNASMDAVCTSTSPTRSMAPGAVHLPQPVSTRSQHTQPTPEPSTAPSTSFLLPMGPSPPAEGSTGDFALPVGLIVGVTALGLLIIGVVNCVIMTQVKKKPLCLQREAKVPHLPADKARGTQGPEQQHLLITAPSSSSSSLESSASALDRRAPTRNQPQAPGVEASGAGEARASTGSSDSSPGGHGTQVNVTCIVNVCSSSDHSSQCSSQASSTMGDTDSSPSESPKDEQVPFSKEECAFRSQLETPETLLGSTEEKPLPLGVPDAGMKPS
Assay: flow cytometry on CHO-TNFR2 cells
Reply with just the number (in µg/mL).

Example results:
33C12huVH3 + huVL1(P07300) (antibody, V domains shown, Humanized 33C12) VH: EVQLVESGGGLVKPGGSLRLSCAASGFTFSDYTMSWVRQAPGKGLEWVATISTGGSYTYYADSVKGRFTISRDNAKNSLYLQMNSLRAEDTAVYYCARDGGYDGDYFDYWGQGTTVTVSS VL: ENVLTQSPATLSLSPGERATMSCRASSSVSSSYLHWYQQKPGQAPRLWIYRTSNLASGVPARFSGSGSGTDYTLTISRVEPEDFAVYYCQQYSGYPLTFGGGTKLEIK; 0.214
33C12huVH3 + huVL3(P07304) (antibody, V domains shown, Humanized 33C12) VH: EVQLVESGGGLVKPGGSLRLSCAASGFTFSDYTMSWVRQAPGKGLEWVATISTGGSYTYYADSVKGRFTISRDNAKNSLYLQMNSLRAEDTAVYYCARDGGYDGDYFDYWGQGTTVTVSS VL: EIVLTQSPATLSLSPGERATLSCRASSSVSSSYLHWYQQKPGQAPRLLIYRTSNLATGIPDRFSGSGSGTDFTLTISRLEPEDFAVYYCQQYSGYPLTFGGGTKLEIK; 0.161
33C12huVH2 + huVL2(P07301) (antibody, V domains shown, Humanized 33C12) VH: EVQLVESGGGLVKPGGSLRLSCAASGFTFSDYTMSWVRQAPGKGLEWVATISTGGSYTYYPDSVKGRFTISRDNAKNTLYLQMSSLRAEDTAVYYCARDGGYDGDYFDYWGQGTTVTVSS VL: ENVLTQSPATLSLSPGERATLSCRASSSVSSSYLHWYQQKPGQAPRLWIYRTSNLASGVPARFSGSGSGTDFTLTISRLEPEDFAVYYCQQYSGYPLTFGGGTKLEIK; 0.13
33C12huVH2 + huVL1(P07299) (antibody, V domains shown, Humanized 33C12) VH: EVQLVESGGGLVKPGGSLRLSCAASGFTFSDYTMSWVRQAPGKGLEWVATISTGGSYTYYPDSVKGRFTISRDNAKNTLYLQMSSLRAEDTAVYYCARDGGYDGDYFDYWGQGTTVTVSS VL: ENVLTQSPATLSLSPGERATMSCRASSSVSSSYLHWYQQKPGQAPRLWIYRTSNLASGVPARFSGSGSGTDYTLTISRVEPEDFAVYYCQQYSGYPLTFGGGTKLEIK; 0.34
33C12huVH1 + huVL1(P07298) (antibody, V domains shown, Humanized 33C12) VH: DVQLVESGGGLVKPGGSLRLSCAASGFTFSDYTMSWVRQAPGKGLEWVATISTGGSYTYYPDSVKGRFTISRDNAKNTLYLQMSSLRAEDTAVYYCTRDGGYDGDYFDYWGQGTTVTVSS VL: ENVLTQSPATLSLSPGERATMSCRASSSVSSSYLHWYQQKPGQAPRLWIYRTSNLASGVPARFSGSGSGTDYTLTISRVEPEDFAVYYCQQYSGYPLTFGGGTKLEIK; 0.0669

# context switch: different binder, same EC50
Request: Suppose we examine the binder human-mouse chimeric TNFR2 monoclonal antibody 33C12-hFc (antibody, V domains shown, Mouse V regions of clone 33C12 with human constant regions; also called human-mouse chimeric 33C12 antibody) VH: DVKLVESGGGLVKPGGSLKLSCAASGFTFSDYTMSWVRQTPEKRLEWVATISTGGSYTYYPDSVKGRFTISRDNAKNTLYLQMSSLKSEDTAMYYCTRDGGYDGDYFDYWGQGTTLTVSS VL: ENVLTQSPAIMSASPGEKVTMTCRASSSVSSSYLHWYQQKSGASPKLWIYRTSNLASGVPARFSGSGSGTSYSLTISSVEAEDAATYYCQQYSGYPLTFGAGTRLELK ; what EC50 value has been reported?
Result: 0.142
